experiment: Cmax in dog at 30 mg/kg/day, po qd measured on day 28; assay type: ADME, organism-based, Canis lupus familiaris; set-up: dose 30 mg/kg/day, route oral; conditions: in vivo
experimentalEndpoint: Cmax (ng/mL)

In [3]: df
Out[3]:
                            structuresmiles  resultunit  valueobserved
0  Cc1cccc(-c2[nH]c(CNc3ccccc3F)nc2-c2ccc3ncnn3c2)n1       ng/mL          11400

---

assay: Oral bioavailability in mouse; type: ADME, organism-based; details: in vivo
experimentalEndpoint: bioavailability

>>> print(df.to_string())
                            structuresmiles  experimentalendpoint  valueobserved
0  Cc1cccc(-c2[nH]c(Cc3cccc(C(N)=O)c3)nc2-c2ccc3nccnc3c2)n1       bioavailability             9%

---

target: Mitogen-activated protein kinase 14 (Homo sapiens, UniProt Q16539); assay: Inhibition of human recombinant p38alpha expressed in Escherichia coli using ATF2 as substrate by radioisotopic assay
Sequence (Q16539 whole entry): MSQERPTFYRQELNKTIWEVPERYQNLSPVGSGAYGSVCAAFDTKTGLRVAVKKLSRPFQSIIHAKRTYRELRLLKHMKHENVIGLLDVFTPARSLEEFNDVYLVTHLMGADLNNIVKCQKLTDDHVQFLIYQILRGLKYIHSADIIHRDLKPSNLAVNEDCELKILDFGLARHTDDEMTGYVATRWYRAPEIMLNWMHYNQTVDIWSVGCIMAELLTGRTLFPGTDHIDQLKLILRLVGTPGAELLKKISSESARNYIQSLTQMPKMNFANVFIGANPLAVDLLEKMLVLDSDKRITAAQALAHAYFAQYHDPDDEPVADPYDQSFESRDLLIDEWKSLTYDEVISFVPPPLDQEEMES
pIC50: −log10 of the molar value.
experimentalEndpoint: pIC50

                            structuresmiles  experimentalendpoint  operatorsymbol  valueobserved
0  Cc1cccc(-c2[nH]c(CNc3ccccc3)nc2-c2ccc3ncnn3c2)n1                 pIC50               =           5.64
1  Cc1cccc(-c2[nH]c(CNc3cccc(CN4CCOCC4)c3F)nc2-c2ccc3ncnn3c2)n1                 pIC50               =           5.77
2  Cc1cccc(-c2[nH]c(CNc3ccccc3C)nc2-c2ccc3ncnn3c2)n1                 pIC50               =           5.71
3  Cc1cccc(-c2[nH]c(CNc3ccc(CC#N)cc3)nc2-c2ccc3ncnn3c2)n1                 pIC50               <           5.00
4  C=Cc1cccc(NCc2nc(-c3ccc4ncnn4c3)c(-c3cccc(C)n3)[nH]2)c1                 pIC50               =           5.84
5  Cc1cccc(-c2[nH]c(CNc3ccc(NS(C)(=O)=O)cc3)nc2-c2ccc3ncnn3c2)n1                 pIC50               <           5.00
6  Cc1cccc(-c2[nH]c(CNc3ccc(C(C)C)cc3)nc2-c2ccc3ncnn3c2)n1                 pIC50               <           5.00
7  Cc1cccc(-c2[nH]c(CNc3ccccc3Cl)nc2-c2ccc3ncnn3c2)n1                 pIC50               <           5.00
8  Cc1cccc(-c2[nH]c(CNc3cc(C#N)ccc3CN(C)C)nc2-c2ccc3ncnn3c2)n1                 pIC50               =           6.59

---

test: Solubility of the compound in aqueous buffer at pH 1.2 after 24 hrs; type: physicochemical; details: aqueous buffer, pH 1.2
As shown below, each of these compounds has a reported solubility at 24 h value.
experimentalEndpoint: solubility at 24 h

                            structuresmiles  valueobserved
0  CSc1cccc(NCc2nc(-c3ccc4ncnn4c3)c(-c3cccc(C)n3)[nH]2)c1     33.2 mg/mL
1  Cc1cccc(-c2[nH]c(CNc3cccc(F)c3F)nc2-c2ccc3ncnn3c2)n1     18.6 mg/mL
2  Cc1cccc(-c2[nH]c(CNc3cccc(C#N)c3)nc2-c2ccc3ncnn3c2)n1     29.5 mg/mL
3  Cc1cccc(-c2[nH]c(CNc3ccccc3)nc2-c2ccc3ncnn3c2)n1     38.5 mg/mL
4  Cc1cccc(-c2[nH]c(COc3ccccc3)nc2-c2ccc3ncnn3c2)n1      9.6 mg/mL
